Source: ChEMBL document CHEMBL1811868

Reported log10(IC50) values for the following compounds.
# System: Salmonella typhimurium
# test description: Antimicrobial activity against Salmonella Typhimurium ATCC 14028 assessed as inhibition of biofilm formation after 24 hrs by spectrophotometry
# Assay type: functional, organism-based, Salmonella enterica subsp. enterica serovar Typhimurium
# condition info: Salmonella enterica, ATCC 14028, 24 h
In plain terms, each number is the log10 of measured IC50 in µM.

As a guide, the following entries are already answered.
CC(C)CN1c2nccc[n+]2C[C@@]1(O)c1ccc([N+](=O)[O-])cc1 2.51
CCCCCN1c2nccc[n+]2C[C@@]1(O)c1ccc(Cl)cc1 1.51
CN1c2nccc[n+]2C[C@@]1(O)c1ccc([N+](=O)[O-])cc1 2.84
CCCCCCCCN1c2nccc[n+]2C[C@@]1(O)c1ccccc1 0.99
Clc1ccc(-c2cnc(NC3CCCC3)[nH]2)cc1Cl 0.76

Switching to the query record.
Give a short answer stating reported log10(IC50) for `O[C@@]1(c2ccccc2)C[n+]2cccnc2N1Cc1ccccc1` .
2.33
